# Test system: CAMA-1 (Breast Carcinoma)
# ASSAY EXPLANATION: combination Emax (second highest fraction inhibited in the dose matrix, 72 h); higher = more inhibition; extreme values may be limits of the assay
MEASUREMENT NAME: combination Emax
Quick one: just the number, no unit, thanks!

Give combination Emax (CAMA-1 (Breast Carcinoma)) of the following molecule: CC1(C)CCC(CN2CCN(c3ccc(C(=O)NS(=O)(=O)c4ccc(NCC5CCOCC5)c([N+](=O)[O-])c4)c(Oc4cnc5[nH]ccc5c4)c3)CC2)=C(c2ccc(Cl)cc2)C1 [Venetoclax] + C1CN(CCC1(C(=O)N[C@@H](CCO)C2=CC=C(C=C2)Cl)N)C3=NC=NC4=C3C=CN4 [Capivasertib] (first compound max 1 µM, 7x7, partner max 3 µM)
0.63

And Cc1c2c(nn1C)CSCc1cc(n(C)n1)CSc1cc(c3ccccc3c1)OCCCc1c(C(=O)O)n(C)c3c-2c(Cl)ccc13 [AZD5991] + Nc1ccn([C@@H]2O[C@H](CO)[C@@H](O)C2(F)F)c(=O)n1 [Gemcitabine] (first compound max 1 µM, 7x7, partner max 0.3 µM) ?
0.942

---

# System: NCI-H2818 (Mesothelioma)
# ASSAY EXPLANATION: combination Emax (second highest fraction inhibited in the dose matrix, 72 h); higher = more inhibition; extreme values may be limits of the assay
MEASUREMENT NAME: combination Emax
Answer field: number only, no words.

Which combination Emax value belongs to COc1cccc(OCCCN)c1-c1cc(Nc2cnc(C#N)cn2)n[nH]1 [Prexasertib] + CN(C)CCCOc1ccc(-c2ccc3ncc4c(c3c2)n(C2CCOCC2)c(=O)n4C)cn1 [AZD0156] (first compound max 1 µM, 7x7, partner max 1 µM) ?
0.282

---

# System: HL-60 (Acute Myeloid Leukemia);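 further: after 72 h of two-drug dosing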
# ASSAY EXPLANATION: Bliss excess, mean over the matrix (fraction); higher = more synergy
Decision: Bliss excess >= 0.001 yields satisfied, all other cases yield not satisfied.

Please review the entries below; each comes with its answer.
INSERT INTO assay_data (molecule, group_label) VALUES
  ('CN(C)CCCOc1ccc(-c2ccc3ncc4c(c3c2)n(C2CCOCC2)c(=O)n4C)cn1 [AZD0156] + O=C(c1cc(Cc2n[nH]c(=O)c3ccccc23)ccc1F)N1CCN(C(=O)C2CC2)CC1 [Olaparib] (first compound max 3 µM, partner max 3 µM)', 'satisfied'),
  ('Cc1c2c(nn1C)CSCc1cc(n(C)n1)CSc1cc(c3ccccc3c1)OCCCc1c(C(=O)O)n(C)c3c-2c(Cl)ccc13 [AZD5991] + Cc1cc2ncnn2cc1Nc1ncc2c(n1)n(C1CCOCC1)c(=O)n2C [AZD7648] (first compound max 1 µM, 7x7, partner max 10 µM)', 'satisfied'),
  ('Cn1cnc2c(F)c(Nc3ccc(Br)cc3Cl)c(C(=O)NOCCO)cc21 [Selumetinib] + C[C@@H]1COCCN1C2=NC(=NC(=C2)C3(CC3)[S@](=N)(=O)C)C4=C5C=CNC5=NC=C4 [AZD6738] (first compound max 10 µM, 7x7, partner max 10 µM)', 'not satisfied'),
  ('Cc1c2c(nn1C)CSCc1cc(n(C)n1)CSc1cc(c3ccccc3c1)OCCCc1c(C(=O)O)n(C)c3c-2c(Cl)ccc13 [AZD5991] + C[C@@H]1COCCN1C2=NC(=NC(=C2)C3(CC3)[S@](=N)(=O)C)C4=C5C=CNC5=NC=C4 [AZD6738] (first compound max 1 µM, 7x7, partner max 10 µM)', 'not satisfied'),
  ('CC(=O)Nc1cccc(-n2c(=O)n(C3CC3)c(=O)c3c(Nc4ccc(I)cc4F)n(C)c(=O)c(C)c32)c1 [Trametinib] + Cc1nc(-c2cn3c(n2)-c2ccc(-c4cnn(C(C)(C)C(N)=O)c4)cc2OCC3)n(C(C)C)n1 [Taselisib] (first compound max 1 µM, 7x7, partner max 10 µM)', 'satisfied'),
  ('Cc1c2c(nn1C)CSCc1cc(n(C)n1)CSc1cc(c3ccccc3c1)OCCCc1c(C(=O)O)n(C)c3c-2c(Cl)ccc13 [AZD5991] + C1CN(CCC1(C(=O)N[C@@H](CCO)C2=CC=C(C=C2)Cl)N)C3=NC=NC4=C3C=CN4 [Capivasertib] (first compound max 1 µM, 7x7, partner max 3 µM)', 'not satisfied');

hey, is Bliss excess for this one >= 0.001? CN(CCO)CC[C@H](CSc1ccccc1)Nc1ccc(S(=O)(=O)NC(=O)c2ccc(N3CCC([C@@H](O)c4ccccc4-c4ccc(Cl)cc4)CC3)cc2)cc1S(=O)(=O)C(F)(F)F [AZD4320] + C1CN(CCC1(C(=O)N[C@@H](CCO)C2=CC=C(C=C2)Cl)N)C3=NC=NC4=C3C=CN4 [Capivasertib] (first compound max 1 µM, 7x7, partner max 3 µM)
not satisfied
